Test system: Pythium ultimum
Assay: Amended agar assay
Format: cell-based
Settings: Globisporangium ultimum; amended PDA agar, 2 ppm, % reduction in colony growth vs control plate, 18° C.
measure: inhibition of growth at 2 ppm

# example entries with known answers
1. Cc1c(OCC(F)(F)F)ccnc1COc1nc2ccccc2n1-c1nnnn1C
> 99%
2. Cn1nnnc1-n1c(OCc2nccs2)nc2ccccc21
< 50%
3. Cc1c(OC(F)(F)C(F)(F)F)ccnc1COc1nc2c(Cl)cccc2n1-c1nnnn1C
> 99%

Here's the next entry for you.
Requested field: inhibition of growth at 2 ppm. Item: CCCCNc1cccc(COc2nc3c(Cl)cccc3n2-c2nnnn2C)n1
> 99%

* * *

Test system: Pythium ultimum
Test: Amended agar assay
Assay type: cell-based
Conditions: Globisporangium ultimum; amended PDA agar, 2 ppm, % reduction in colony growth vs control plate, 18° C.
Below, each entry is listed with its recorded inhibition of growth at 2 ppm.

Below are worked cases with known answers.
1. Cn1nnnc1-n1c(OCc2nc3ccccc3n2C)nc2ccccc21
> 99%
2. Cc1ccc(COc2nc3ccccc3n2-c2nnnn2C)nc1
> 99%

Here's the next entry for you.
Write down the reported inhibition of growth at 2 ppm of Cn1nnnc1-n1c(OCc2cccc(NCc3ccc(C#N)cc3)n2)nc2ccccc21 , test system: Pythium ultimum.
50 to 99%

* * *

Test system: Pythium ultimum
Test: Amended agar assay
Type: cell-based
Conditions: Globisporangium ultimum; amended PDA agar, 2 ppm, % reduction in colony growth vs control plate, 18° C.
Item-by-item account of inhibition of growth at 2 ppm

1) Cn1nnnc1-n1c(OCc2nc3ccccc3s2)nc2c(Br)cccc21
> 99%
2) CC(C)CCNc1cccc(COc2nc3c(Cl)cccc3n2-c2nnnn2C)n1
> 99%
3) CSc1ccnc(COc2nc3ccccc3n2-c2nnnn2C)c1
> 99%
4) Cn1nnnc1-n1c(OCc2cccc(NCc3ccco3)n2)nc2ccccc21
> 99%
5) CCCOc1ccnc(COc2nc3ccccc3n2-c2nnnn2C)c1
> 99%

Fill in: inhibition of growth at 2 ppm of CC(C)CCCNc1cccc(COc2nc3ccccc3n2-c2nnnn2C)n1 is ___
> 99%

Now the same for Cn1nnnc1-n1c(OCc2ccc3ccccc3n2)nc2ccccc21
50 to 99%

Next record, please: CC(C)Nc1cccc(COc2nc3c(Cl)cccc3n2-c2nnnn2C)n1
> 99%

Next record, please: Cn1nnnc1-n1c(OCc2cccc(NCc3ccc(Cl)cc3)n2)nc2ccccc21
> 99%

Try this compound too: COc1c(C)cnc(COc2nc3ccccc3n2-c2nnnn2C)c1C
> 99%

Cool, now Cn1ccc(CNc2cccc(COc3nc4ccccc4n3-c3nnnn3C)n2)n1
> 99%

Next up: CC(C)CCCNc1cccc(COc2nc3c(Cl)cccc3n2-c2nnnn2C)n1
> 99%

Cool, now Cc1ccnc(COc2nc3ccccc3n2-c2nnnn2C)c1
> 99%

Same question for Cn1nnnc1-n1c(OCc2cccc(NCCCc3ccccc3)n2)nc2ccccc21 please.
> 99%

Request: Cn1nnnc1-n1c(OCc2cccnc2)nc2ccccc21
< 50%

Would you kindly repeat that for CCCCNc1cccc(COc2nc3ccccc3n2-c2nnnn2C)n1 ?
> 99%

* * *

Tested on: Pythium ultimum
Assay: Amended agar assay
Assay type: cell-based
Details: Globisporangium ultimum; amended PDA agar, 2 ppm, % reduction in colony growth vs control plate, 18° C.
Collected inhibition of growth at 2 ppm values appear next to each entry.

1) Cn1nnnc1-n1c(OCc2nc3ccccc3n2C)nc2c(Br)cccc21
> 99%
2) Cn1nnnc1-n1c(OCc2cccc(NCc3cccc(OC(F)(F)F)c3)n2)nc2ccccc21
> 99%
3) COc1c(C)cnc(COc2nc3ccccc3n2-c2ncncc2Cl)c1C
50 to 99%
4) Cn1nnnc1-n1c(OCc2cccc(NCc3cccc(C(F)(F)F)c3)n2)nc2ccccc21
> 99%

Now let's try a different one.
Item Cn1nnnc1-n1c(OCc2ccncc2)nc2ccccc21 has what recorded inhibition of growth at 2 ppm?
< 50%

This collection of values is drawn from patent US11241013B2.
